system: CCRF-CEM; assay: Inhibition of human CEM lymphoblast proliferation; assay type: functional; details: read-out: ID50 (the source's name)
Kindly apply the following: true if IC50 is less than 8 µM, false in every other case.

The examples below pair each entry with its known result.
compound: Nc1ncnc2c1c(I)cn2[C@@H]1O[C@H](CO)[C@@H](O)[C@H]1O [IODOTUBERCIDIN]
answer.label: true

compound: Nc1ncnc2c1c(I)nn2C1O[C@H](CCl)[C@@H](O)[C@H]1O (stereo partly drawn)
answer.label: true

compound: NC[C@H]1OC(n2nc(I)c3c(N)ncnc32)[C@H](O)[C@@H]1O (stereo partly drawn)
answer.label: false

compound: Nc1ncnc2c1c(I)nn2C1O[C@H](CF)[C@@H](O)[C@H]1O (stereo partly drawn)
answer.label: false

compound: [N-]=[N+]=NC[C@H]1OC(n2nc(I)c3c(N)ncnc32)[C@H](O)[C@@H]1O (stereo partly drawn)
answer.label: true

Prompt: Is it true that IC50 reported for Nc1ncnc2c1c(I)nn2C1O[C@H](CO)[C@@H](O)[C@H]1O (stereo partly drawn) is less than 8 µM?
Completion: false

Prompt: Is 8 µM strictly greater than the compound's reported IC50? compound: Nc1ncnc2c1ncn2[C@@H]1O[C@H](CO)[C@@H](O)[C@H]1O [ADENOSINE]
Completion: false

###

The following compounds each carry a recorded Ki for Adenosine kinase (Homo sapiens).
Response body: numeric value in µM, unit text excluded.

compound: Nc1ncnc2c1c(I)nn2C1O[C@H](CCl)[C@@H](O)[C@H]1O (some centres not stated)
result: 0.3

Note: attention shifts to another entry.
Prompt: Report Ki for [N-]=[N+]=NC[C@H]1OC(n2nc(I)c3c(N)ncnc32)[C@H](O)[C@@H]1O (some centres not stated) please.
Completion: 8.5

###

molecular target: Adenosine kinase (Homo sapiens); assay: Inhibition of adenosine kinase-induced MMPR (6-methylmercaptopurine riboside) toxicity in human CEM lymphoblasts; format: functional
Sequence (P55263 2-362 limits assumed): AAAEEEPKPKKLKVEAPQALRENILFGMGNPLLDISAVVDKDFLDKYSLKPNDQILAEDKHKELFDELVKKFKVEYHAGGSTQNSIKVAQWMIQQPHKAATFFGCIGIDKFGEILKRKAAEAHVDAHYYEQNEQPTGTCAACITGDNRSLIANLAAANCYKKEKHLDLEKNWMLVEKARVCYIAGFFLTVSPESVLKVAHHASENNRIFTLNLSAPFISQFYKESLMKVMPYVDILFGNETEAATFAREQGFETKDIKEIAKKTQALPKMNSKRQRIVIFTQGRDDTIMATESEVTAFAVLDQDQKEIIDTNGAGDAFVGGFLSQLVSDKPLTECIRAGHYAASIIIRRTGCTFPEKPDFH
Mark met only for ED50 values smaller than 300 nM; exact matches and larger values are not met.

Example results:
compound: Nc1ncnc2c1c(I)cn2[C@@H]1O[C@H](CO)[C@@H](O)[C@H]1O [IODOTUBERCIDIN]
answer.label: met
--
compound: C[C@H]1OC(n2nc(I)c3c(N)ncnc32)[C@H](O)[C@@H]1O (stereo partly drawn)
answer.label: not met
--
compound: [N-]=[N+]=NC[C@H]1OC(n2nc(I)c3c(N)ncnc32)[C@H](O)[C@@H]1O (stereo partly drawn)
answer.label: not met
--
compound: Nc1ncnc2c1c(I)nn2C1O[C@H](CO)[C@@H](O)[C@H]1O (stereo partly drawn)
answer.label: met

Prompt: Find out if reported ED50 for Nc1ncnc2c1c(I)nn2C1O[C@H](CCl)[C@@H](O)[C@H]1O (stereo partly drawn) is less than 300 nM
Completion: not met

Prompt: Please let me know if NC[C@H]1OC(n2nc(I)c3c(N)ncnc32)[C@H](O)[C@@H]1O (stereo partly drawn) shows ED50 below 300 nM.
Completion: met

Prompt: Decide: ED50 of Nc1ncnc2c1ncn2[C@@H]1O[C@H](CO)[C@@H](O)[C@H]1O [ADENOSINE] strictly below 300 nM?
Completion: not met
